Each entry below carries its recorded Bliss interaction score.
# Tested on: S. aureus Newman;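 also: first quartile when negative (synergy) and third quartile when positive (antagonism)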
# ASSAY_NOTES: Bliss interaction score (quartile over a dose matrix) (fitness difference); higher = more antagonism (negative = synergy)

COMPOUND	Bliss interaction score
CC(=O)NC[C@H]1CN(c2ccc(N3CCOCC3)c(F)c2)C(=O)O1 [Linezolid] + O=C1CN(/N=C/c2ccc([N+](=O)[O-])o2)C(=O)N1 [Nitrofurantoin]	-0.0829
CC[C@H]1OC(=O)[C@H](C)[C@@H](O[C@H]2C[C@@](C)(OC)[C@@H](O)[C@H](C)O2)[C@H](C)[C@@H](O[C@@H]2O[C@H](C)C[C@H](N(C)C)[C@H]2O)[C@](C)(O)C[C@@H](C)C(=O)[C@H](C)[C@@H](O)[C@]1(C)O [Erythromycin] + C/C(=C\C(=O)OCCCCCCCCC(=O)O)C[C@@H]1OC[C@H](C[C@@H]2O[C@H]2[C@@H](C)[C@H](C)O)[C@@H](O)[C@H]1O [Pseudomonic acid]	-0.0171
CO[C@@H]1[C@@H](OC(N)=O)[C@@H](O)[C@H](Oc2ccc3c(O)c(NC(=O)c4ccc(O)c(CC=C(C)C)c4)c(=O)oc3c2C)OC1(C)C [Novobiocin] + COc1ccc(C[C@H](N)C(=O)N[C@H]2[C@@H](O)[C@H](n3cnc4c(N(C)C)ncnc43)O[C@@H]2CO)cc1 [Puromycin]	-0.0461

---

# Tested on: B. subtilis 168;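 also: OD595 on entry to stationary phase over no-drug wells; at most 1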
# ASSAY_NOTES: fitness (endpoint OD595 vs no drug) (fraction); higher = more growth
# MEASUREMENT_CONDITIONS: first compound 0.25 µg/mL; partner 2 µg/mL; one replicate

COMPOUND	ASSAY_TARGET	fitness
CO[C@@H]1[C@@H](OC(N)=O)[C@@H](O)[C@H](Oc2ccc3c(O)c(NC(=O)c4ccc(O)c(CC=C(C)C)c4)c(=O)oc3c2C)OC1(C)C [Novobiocin] + Cc1cc(NS(=O)(=O)c2ccc(N)cc2)no1 [Sulfamethoxazol]	B. subtilis 168	0.838
CO[C@@H]1[C@@H](OC(N)=O)[C@@H](O)[C@H](Oc2ccc3c(O)c(NC(=O)c4ccc(O)c(CC=C(C)C)c4)c(=O)oc3c2C)OC1(C)C [Novobiocin] + CN[C@@H]1[C@H](O[C@H]2[C@H](O[C@H]3[C@H](O)[C@@H](O)[C@H](N=C(N)N)[C@@H](O)[C@@H]3N=C(N)N)O[C@@H](C)[C@]2(O)C=O)O[C@@H](CO)[C@H](O)[C@H]1O [Streptomycin]	B. subtilis 168	0.843
CC(=O)NC[C@H]1CN(c2ccc(N3CCOCC3)c(F)c2)C(=O)O1 [Linezolid] + COc1cc(Cc2cnc(N)nc2N)cc(OC)c1OC	B. subtilis 168	0.0332
CO[C@@H]1[C@@H](OC(N)=O)[C@@H](O)[C@H](Oc2ccc3c(O)c(NC(=O)c4ccc(O)c(CC=C(C)C)c4)c(=O)oc3c2C)OC1(C)C [Novobiocin] + CN[C@@H]1[C@H](O)[C@H](NC)[C@H]2O[C@@]3(O)C(=O)C[C@@H](C)O[C@H]3O[C@@H]2[C@H]1O [Spectinomycin]	B. subtilis 168	0.779

---

# Tested on: S. aureus Newman;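 also: first quartile when negative (synergy) and third quartile when positive (antagonism)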
# ASSAY_NOTES: Bliss interaction score (quartile over a dose matrix) (fitness difference); higher = more antagonism (negative = synergy)
Quick list: Bliss interaction score per entry.

MOLECULE	Bliss interaction score
CO[C@H]1/C=C/O[C@@]2(C)Oc3c(C)c(O)c4c(O)c(c(/C=N/N5CCN(C)CC5)c(O)c4c3C2=O)NC(=O)/C(C)=C\C=C\[C@H](C)[C@H](O)[C@@H](C)[C@@H](O)[C@@H](C)[C@H](OC(C)=O)[C@@H]1C [Rifampicin] + Cc1cc(NS(=O)(=O)c2ccc(N)cc2)no1 [Sulfamethoxazol]	-0.0257
CC(=O)NC[C@H]1CN(c2ccc(N3CCOCC3)c(F)c2)C(=O)O1 [Linezolid] + CN[C@@H]1[C@H](O[C@H]2[C@H](O[C@H]3[C@H](O)[C@@H](O)[C@H](N=C(N)N)[C@@H](O)[C@@H]3N=C(N)N)O[C@@H](C)[C@]2(O)C=O)O[C@@H](CO)[C@H](O)[C@H]1O [Streptomycin]	-0.0504
CN[C@H](CC(C)C)C(=O)N[C@H]1C(=O)N[C@@H](CC(N)=O)C(=O)N[C@H]2C(=O)N[C@H]3C(=O)N[C@H](C(=O)N[C@H](C(=O)O)c4cc(O)cc(O)c4-c4cc3ccc4O)[C@H](O[C@H]3C[C@](C)(N)[C@@H](O)[C@H](C)O3)c3ccc(c(Cl)c3)Oc3cc2cc(c3O[C@@H]2O[C@H](CO)[C@@H](O)[C@H](O)[C@H]2O[C@H]2C[C@](C)(NCc3ccc(-c4ccc(Cl)cc4)cc3)[C@@H](O)[C@H](C)O2)Oc2ccc(cc2Cl)[C@H]1O [Oritavancin] + Cc1cc(NS(=O)(=O)c2ccc(N)cc2)no1 [Sulfamethoxazol]	0.0801
